Experiment: PK study in mice
Type: in vivo, BALB/c mice
Conditions: female, BALB/c, mouse, plasma, po, 10 mg/kg, oral administration (IG), read-out: Tmax (time to maximum plasma level)
Procedure: After dosing, blood samples were collected at indicated time points (15 min, 30 min, 45 min, 60 min, 90 min, 2 h, 4 h, 6 h, 8 h, 12 h, 24 h). Blood samples from each group were collected at each time point and the supernatant was collected and used for HPLC/LC-MAS analysis. Then, plasma levels of LT-171-861 were measured at each indicated time point. […] This inhibition efficacy lasted for 24 h, in accordance with the results of the PK experiment.
measuredProperty: Tmax

Lab book: Tmax of CN1CCN(Cc2ccc(NC(=O)c3n[nH]cc3Nc3ncnc4[nH]ccc34)cc2)CC1 noted as 1 h

====

Assay: PK study in mice
Format: in vivo, BALB/c mice
Conditions: female, BALB/c, mouse, plasma, oral versus intravenous at 10 mg/kg
measuredProperty: bioavailability

Lab book: bioavailability of CN1CCN(Cc2ccc(NC(=O)c3n[nH]cc3Nc3ncnc4[nH]ccc34)cc2)CC1 noted as ~15%

====

Molecular target: FLT3 (Homo sapiens, UniProt P36888)
Sequence (P36888 610-943 limits assumed): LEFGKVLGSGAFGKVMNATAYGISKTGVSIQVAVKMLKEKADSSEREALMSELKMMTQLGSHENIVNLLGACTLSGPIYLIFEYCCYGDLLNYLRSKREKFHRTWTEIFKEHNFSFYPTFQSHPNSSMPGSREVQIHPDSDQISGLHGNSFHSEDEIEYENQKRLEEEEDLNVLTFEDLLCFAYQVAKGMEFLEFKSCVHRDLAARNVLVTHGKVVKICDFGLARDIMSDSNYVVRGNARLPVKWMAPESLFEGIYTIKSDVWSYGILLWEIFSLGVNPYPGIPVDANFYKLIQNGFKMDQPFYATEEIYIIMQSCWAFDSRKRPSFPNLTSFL
Assay: FLT3 autophosphorylation by western blot in MV4-11 and MOLM13 cells
Assay type: cell-based
Conditions: 2 h, read-out: IC50 of inhibition of FLT3 autophosphorylation
measuredProperty: IC50

Lab book: IC50 of CN1CCN(Cc2ccc(NC(=O)c3n[nH]cc3Nc3ncnc4[nH]ccc34)cc2)CC1 [LT-171-861] noted as ≤ 40 nM

====

System: THP-1
Assay: Cell proliferation MTT assay
Format: cell-based
Details: Homo sapiens, 72 h, wild-type FLT3, read-out: Human leukemia cell line IC50 THP-1
Protocol: The conditional medium (CM) was prepared from the supernatant of HS-5 cell culture for 5 days under normal culture conditions. At the indicated time point, cell viability was evaluated by MTT assay.
Overview of reported IC50 across a group of molecules:

// worked examples, IC50 included
Short answer on THP-1 for CN1CCN(Cc2ccc(NC(=O)c3n[nH]cc3Nc3ncnc4[nH]ccc34)cc2)CC1 , IC50: 504 nM

Short answer on THP-1 for CC(C)(C)c1cc(NC(=O)Nc2ccc(-c3cn4c(n3)sc3cc(OCCN5CCOCC5)ccc34)cc2)no1 , IC50: > 1000 nM

Continuing:
Short answer on THP-1 for CNC(=O)c1cc(Oc2ccc(NC(=O)Nc3ccc(Cl)c(C(F)(F)F)c3)cc2)ccn1 [Sorafenib, reference compound] , IC50: > 1000 nM

====

Experiment: PK study in mice
Format: in vivo, BALB/c mice
Conditions: female, BALB/c, mouse, plasma, po, 10 mg/kg, IG, read-out: MRT(0-∞)
measuredProperty: MRT inf (h)
# number only, unit h dropped from output

Lab book: MRT inf of CN1CCN(Cc2ccc(NC(=O)c3n[nH]cc3Nc3ncnc4[nH]ccc34)cc2)CC1 noted as 5.95

====

Overview of reported pIC50 across a group of molecules:
Tested on: BaF3 cells with FLT3-ITD/D835Y
Assay: Cell viability of transformed BaF3 cells
Assay type: cell-based, murine
Settings: Mus musculus, BaF3; cell viability; read-out: BaF3 cells with FLT3 mutants IC50 ITD-D835Y
// returns pIC50 (minus log10 of molar concentration), number only

Lab book: pIC50 of CNC(=O)c1cc(Oc2ccc(NC(=O)Nc3ccc(Cl)c(C(F)(F)F)c3)cc2)ccn1 [Sorafenib, reference compound] noted as 6.06

Continuing:
Lab book: pIC50 of CN1CCN(Cc2ccc(NC(=O)c3n[nH]cc3Nc3ncnc4[nH]ccc34)cc2)CC1 [LT-171-861] noted as 7.24

====

Target: ERK1 (Homo sapiens)
Construct: purchased Reaction Biology Corporation (PA, USA)
Sequence (P27361 whole entry): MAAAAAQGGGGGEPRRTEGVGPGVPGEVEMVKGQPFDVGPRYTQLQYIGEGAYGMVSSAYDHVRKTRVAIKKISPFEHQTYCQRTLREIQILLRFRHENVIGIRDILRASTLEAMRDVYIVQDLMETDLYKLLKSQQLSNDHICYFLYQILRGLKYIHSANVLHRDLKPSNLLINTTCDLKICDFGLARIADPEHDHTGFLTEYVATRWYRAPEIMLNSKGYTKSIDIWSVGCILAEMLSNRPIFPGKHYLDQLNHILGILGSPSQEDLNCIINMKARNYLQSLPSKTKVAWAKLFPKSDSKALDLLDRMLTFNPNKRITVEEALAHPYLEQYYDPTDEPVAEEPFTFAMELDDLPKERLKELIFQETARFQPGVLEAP
Experiment: Kinase inhibition assay (Reaction Biology)
Assay type: biochemical
pIC50: −log10 of the molar value.
measuredProperty: pIC50

Lab book: pIC50 of CN1CCN(Cc2ccc(NC(=O)c3n[nH]cc3Nc3ncnc4[nH]ccc34)cc2)CC1 noted as < 6.70

====

Experiment: PK study in mice
Type: in vivo, BALB/c mice
Settings: female, BALB/c, mouse, plasma, 10 mg/kg, intravenous injection (IV)
measuredProperty: Cmax
Report the figure along with its unit, number first.

Lab book: Cmax of CN1CCN(Cc2ccc(NC(=O)c3n[nH]cc3Nc3ncnc4[nH]ccc34)cc2)CC1 noted as 2170 ng/mL

====

Target: FLT3 (D835Y) (Homo sapiens, UniProt P36888, D835Y)
Construct: purchased Reaction Biology Corporation (PA, USA)
Sequence (P36888 27-993 D835Y): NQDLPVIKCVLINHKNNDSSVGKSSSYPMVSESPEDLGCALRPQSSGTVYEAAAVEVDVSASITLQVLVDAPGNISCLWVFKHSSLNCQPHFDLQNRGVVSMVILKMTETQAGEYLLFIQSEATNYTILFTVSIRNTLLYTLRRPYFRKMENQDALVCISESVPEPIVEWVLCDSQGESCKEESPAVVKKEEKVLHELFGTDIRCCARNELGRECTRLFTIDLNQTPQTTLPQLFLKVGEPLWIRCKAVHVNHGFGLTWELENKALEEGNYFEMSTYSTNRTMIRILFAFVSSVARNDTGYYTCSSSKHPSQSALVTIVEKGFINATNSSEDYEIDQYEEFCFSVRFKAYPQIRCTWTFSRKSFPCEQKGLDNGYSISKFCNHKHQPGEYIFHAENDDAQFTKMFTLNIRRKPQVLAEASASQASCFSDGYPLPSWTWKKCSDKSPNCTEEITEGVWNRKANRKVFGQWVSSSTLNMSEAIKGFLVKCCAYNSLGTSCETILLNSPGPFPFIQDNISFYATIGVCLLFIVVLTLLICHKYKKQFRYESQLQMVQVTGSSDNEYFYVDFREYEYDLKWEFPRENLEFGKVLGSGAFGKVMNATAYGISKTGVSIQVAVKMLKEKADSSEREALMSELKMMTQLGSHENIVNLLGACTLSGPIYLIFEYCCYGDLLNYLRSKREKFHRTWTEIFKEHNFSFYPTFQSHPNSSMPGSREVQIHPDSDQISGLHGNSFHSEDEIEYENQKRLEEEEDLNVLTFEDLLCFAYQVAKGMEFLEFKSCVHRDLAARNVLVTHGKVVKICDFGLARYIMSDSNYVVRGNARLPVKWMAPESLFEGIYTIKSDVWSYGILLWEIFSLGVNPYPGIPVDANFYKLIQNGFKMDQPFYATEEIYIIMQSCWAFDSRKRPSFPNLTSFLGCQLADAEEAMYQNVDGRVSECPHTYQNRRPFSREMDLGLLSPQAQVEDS
Assay: Kinase inhibition assay (Reaction Biology)
Format: biochemical
measuredProperty: IC50

Lab book: IC50 of CN1CCN(Cc2ccc(NC(=O)c3n[nH]cc3Nc3ncnc4[nH]ccc34)cc2)CC1 noted as < 1 nM

====

Test system: BaF3 cells with FLT3-D835Y
Assay: Cell viability of transformed BaF3 cells
Assay type: cell-based, murine
Conditions: Mus musculus, read-out: BaF3 cells with FLT3 mutants IC50 D835Y
Overview of reported IC50 across a group of compounds:
# number only, unit nM dropped from output

Lab book: IC50 of CN1CCN(Cc2ccc(NC(=O)c3n[nH]cc3Nc3ncnc4[nH]ccc34)cc2)CC1 [LT-171-861] noted as 23.3

The record that follows has no IC50 shown yet.
Lab book: IC50 of CNC(=O)c1cc(Oc2ccc(NC(=O)Nc3ccc(Cl)c(C(F)(F)F)c3)cc2)ccn1 [Sorafenib, reference compound] noted as 235

====

Experiment: PK study in mice
Type: in vivo, BALB/c mice
Conditions: female, BALB/c, mouse, plasma, 10 mg/kg, IV, read-out: Vz
measuredProperty: Vd (L/kg)
# number only, unit L/kg dropped from output

Lab book: Vd of CN1CCN(Cc2ccc(NC(=O)c3n[nH]cc3Nc3ncnc4[nH]ccc34)cc2)CC1 [LT-171-861] noted as 8.61

====

Target: UniProt:P52333
Sequence (P52333 1-1124): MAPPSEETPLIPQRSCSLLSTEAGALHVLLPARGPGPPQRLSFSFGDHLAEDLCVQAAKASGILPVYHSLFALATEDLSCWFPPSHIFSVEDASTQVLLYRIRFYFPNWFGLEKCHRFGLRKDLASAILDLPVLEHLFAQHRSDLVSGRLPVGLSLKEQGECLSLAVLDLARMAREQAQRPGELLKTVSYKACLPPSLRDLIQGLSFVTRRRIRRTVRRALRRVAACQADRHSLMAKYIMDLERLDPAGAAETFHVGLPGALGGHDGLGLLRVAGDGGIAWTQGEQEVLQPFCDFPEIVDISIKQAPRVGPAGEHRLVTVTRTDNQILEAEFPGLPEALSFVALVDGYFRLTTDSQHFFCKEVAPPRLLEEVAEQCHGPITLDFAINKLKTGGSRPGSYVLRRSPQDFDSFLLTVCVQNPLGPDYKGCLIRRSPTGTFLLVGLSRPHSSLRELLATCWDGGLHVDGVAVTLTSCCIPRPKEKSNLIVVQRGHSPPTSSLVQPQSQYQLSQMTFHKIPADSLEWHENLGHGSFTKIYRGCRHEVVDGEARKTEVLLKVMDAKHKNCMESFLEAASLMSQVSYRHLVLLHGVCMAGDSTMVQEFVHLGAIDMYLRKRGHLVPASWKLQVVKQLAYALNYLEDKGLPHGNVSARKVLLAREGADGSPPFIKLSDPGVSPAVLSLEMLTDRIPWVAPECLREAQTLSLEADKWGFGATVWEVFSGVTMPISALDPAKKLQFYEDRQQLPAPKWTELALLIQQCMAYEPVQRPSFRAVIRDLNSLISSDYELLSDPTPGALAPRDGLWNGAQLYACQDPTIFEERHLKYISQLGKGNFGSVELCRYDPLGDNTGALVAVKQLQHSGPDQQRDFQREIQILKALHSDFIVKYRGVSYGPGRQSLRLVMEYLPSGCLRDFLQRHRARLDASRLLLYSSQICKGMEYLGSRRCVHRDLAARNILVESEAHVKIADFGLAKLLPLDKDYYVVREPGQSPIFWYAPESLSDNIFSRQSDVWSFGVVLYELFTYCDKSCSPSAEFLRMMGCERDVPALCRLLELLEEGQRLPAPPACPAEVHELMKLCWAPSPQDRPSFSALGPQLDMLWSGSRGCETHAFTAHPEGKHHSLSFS
measuredProperty: IC50 (nM)
# number only, unit nM dropped from output

Short answer on UniProt:P52333 for CN1CCN(Cc2ccc(NC(=O)c3n[nH]cc3Nc3ncnc4[nH]ccc34)cc2)CC1 [LT-171-861] , IC50: 32.6
